// data source = PubChem BioAssay (NCI)

System: SK-OV-3 ovarian
Assay: NCI tumour cell line growth inhibition, 48 h
Entries and their TGI

Below, each entry is followed by its recorded TGI result.
INSERT INTO measurements (molecule, parameter, result) VALUES
  ('Cc1ccc(C(=Nc2ccccc2)N=P(c2ccccc2)(c2ccccc2)c2ccccc2)cc1', 'TGI', '5.22 µM'),
  ('CN(C)CCCNC(=O)c1c(-c2cccnc2)cnc2ccccc12', 'TGI', '> 100 µM'),
  ('CCOc1ccc(Nc2nc(C)c(C(=O)/C=C/c3ccc(Cl)cc3Cl)s2)cc1', 'TGI', '54.3 µM'),
  ('Cc1nc2ccc(Nc3nc(Cl)nc(Nc4ccc(F)cc4)n3)cc2n1Cc1ccccc1', 'TGI', '66.8 µM'),
  ('O=C(OCc1ccccc1)N1N=NC2C1C1CC(OCc3ccccc3)(OCc3ccccc3)C2O1 (stereo unspecified)', 'TGI', '> 100 µM');

Entry under test: CCCCCCSC[C@H](OC(C)=O)[C@@H](OC(C)=O)[C@@H](OC(C)=O)[C@@H](COC(C)=O)OC(C)=O . Its TGI was > 100 µM

Entry under test: C(=Nc1ccccc1C1SCCCS1)c1ccccc1 . Its TGI was > 100 µM

Entry under test: CCN(Cc1cccnc1)c1ccc(CO)c(Cl)c1 . Its TGI was > 100 µM
